So I've got a bunch of compounds here, and I need their pIC50 values.
tested target: CD73 (Homo sapiens (Human))
Sequence (P21589 27-574): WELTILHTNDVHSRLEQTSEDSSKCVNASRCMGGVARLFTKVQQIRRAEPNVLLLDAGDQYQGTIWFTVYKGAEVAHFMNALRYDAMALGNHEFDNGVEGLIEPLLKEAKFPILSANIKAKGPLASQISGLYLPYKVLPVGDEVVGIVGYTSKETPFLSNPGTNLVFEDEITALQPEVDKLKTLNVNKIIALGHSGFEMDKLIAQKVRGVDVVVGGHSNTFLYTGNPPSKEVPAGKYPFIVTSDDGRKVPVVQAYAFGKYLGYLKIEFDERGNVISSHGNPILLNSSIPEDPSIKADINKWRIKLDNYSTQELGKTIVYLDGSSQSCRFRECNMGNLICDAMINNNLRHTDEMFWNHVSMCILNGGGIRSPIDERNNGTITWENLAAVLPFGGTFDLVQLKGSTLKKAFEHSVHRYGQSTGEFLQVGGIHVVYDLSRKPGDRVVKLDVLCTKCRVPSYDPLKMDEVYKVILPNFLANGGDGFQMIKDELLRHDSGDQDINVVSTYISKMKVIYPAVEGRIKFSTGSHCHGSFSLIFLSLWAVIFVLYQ
Assay type: biochemical
test parameters: 1 mM NaH2PO4 in enzyme buffer, CD73 0.3 nM, AMP 15 uM
Answers are plain numbers, as −log10 of the molar value.

Solved entries:
[
  {
    "compound": "O=c1[nH]cc(-c2cc([C@H]3C[C@@H]3c3ccc(Cl)cn3)c3nccn3n2)c(=O)[nH]1 [Example 585]",
    "pIC50": 9.16
  },
  {
    "compound": "O=c1[nH]cc(-c2cc([C@H]3C[C@@H]3c3ccc4cnn(-c5ccc(C(F)(F)F)cn5)c4c3)c3nccn3n2)c(=O)[nH]1 (racemic) [Example 383]",
    "pIC50": 8.74
  },
  {
    "compound": "CC1(C)CN(c2cc(-c3c[nH]c(=O)[nH]c3=O)nn3cc(Cl)nc23)CC1(F)F [Example 328]",
    "pIC50": 8.43
  }
]

I would be grateful if you could provide pIC50 for each of the following entries.
1. COC1CN(c2cc(-c3c[nH]c(=O)[nH]c3=O)nn3c(F)cnc23)CC1(F)F (stereo not shown) [Example 474]
2. CC(C)NC(=O)CC1CN(c2cc(-c3c[nH]c(=O)[nH]c3=O)nn3ccnc23)CC1(F)F (stereo not shown) [Example 659]
3. N#Cc1ccc([C@H]2C[C@@H]2c2cc(-c3c[nH]c(=O)[nH]c3=O)nn3c(F)cnc23)cc1 [Example 158]
4. O=c1[nH]cc(-c2cc([C@H]3C[C@@H]3c3ccncc3)c3nccn3n2)c(=O)[nH]1 (racemic) [Example 54]

Reply text:
1. 8.13
2. 8.40
3. 9.26
4. 8.70
